# Tested on: differentiated 661W cells
# assay remarks: MTT assay, cannabinoid cytotoxicity on differentiated 661W cells under atmospheric pressure
# Type: cell-based, mouse
# run parameters: concentration of about 5 μM; 72 hours
endpoint label: toxicity when in contact with neurons

| compound | experimental target | recorded value |
| --- | --- | --- |
| C=C(C)[C@@H]1CCC(C)=C[C@H]1c1c(O)cc(CCCCC)cc1O | differentiated 661W cells | high toxicity |
| CCCCCc1cc(O)c(C/C=C(\C)CCC=C(C)C)c(O)c1C(=O)O | differentiated 661W cells | high toxicity |
| CCCCCc1cc(O)c(C/C=C(\C)CCC=C(C)C)c(O)c1 | differentiated 661W cells | high toxicity |
| CCCCCc1cc(O)c2c(c1)OC(C)(CCC=C(C)C)C=C2 (stereo not shown) | differentiated 661W cells | high toxicity |
| C=C(C)c1ccc(C)cc1-c1c(O)cc(CCCCC)cc1O | differentiated 661W cells | high toxicity |

Notebook: pull reported toxicity when in contact with neurons for differentiated 661W cells, entry C=C(C)[C@@H]1CCC(C)=C[C@H]1c1c(O)cc(CCCCC)c(C(=O)O)c1O
high toxicity

toxicity when in contact with neurons of CCCCCc1cc(O)c2c(c1)OC(C)(C)[C@@H]1CCC(C)=C[C@@H]21 [Δ^9-THC, Δ^9-tetrahydrocannabinol] on differentiated 661W cells?
high toxicity
